Parameter: IC50. Scope: all listed entries.
Target: Mitogen-activated protein kinase kinase kinase kinase 1 (Homo sapiens, UniProt Q92918)
Sequence (Q92918 whole entry): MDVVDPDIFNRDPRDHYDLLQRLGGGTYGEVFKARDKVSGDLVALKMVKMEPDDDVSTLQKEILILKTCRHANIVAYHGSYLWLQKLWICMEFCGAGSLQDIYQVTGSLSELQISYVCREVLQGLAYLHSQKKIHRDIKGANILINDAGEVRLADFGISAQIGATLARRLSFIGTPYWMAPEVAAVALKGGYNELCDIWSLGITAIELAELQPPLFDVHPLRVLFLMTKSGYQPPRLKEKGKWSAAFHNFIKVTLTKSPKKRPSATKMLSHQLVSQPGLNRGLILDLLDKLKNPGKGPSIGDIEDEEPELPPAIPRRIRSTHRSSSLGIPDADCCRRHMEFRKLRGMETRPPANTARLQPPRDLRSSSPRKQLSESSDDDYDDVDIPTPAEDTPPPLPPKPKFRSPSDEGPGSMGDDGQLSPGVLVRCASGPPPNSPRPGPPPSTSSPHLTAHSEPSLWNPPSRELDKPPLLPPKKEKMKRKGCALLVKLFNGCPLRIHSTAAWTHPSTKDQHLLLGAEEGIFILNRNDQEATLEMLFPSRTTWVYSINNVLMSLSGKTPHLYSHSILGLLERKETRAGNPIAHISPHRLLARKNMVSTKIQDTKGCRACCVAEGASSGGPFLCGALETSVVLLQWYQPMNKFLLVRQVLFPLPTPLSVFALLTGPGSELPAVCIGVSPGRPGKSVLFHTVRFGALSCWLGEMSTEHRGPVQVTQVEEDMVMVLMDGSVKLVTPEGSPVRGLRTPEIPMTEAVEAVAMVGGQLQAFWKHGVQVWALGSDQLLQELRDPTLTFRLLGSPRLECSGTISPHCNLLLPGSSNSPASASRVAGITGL
Experiment: HPK1 Biochemical Enzyme Assay

Example compounds with recorded IC50:
CN(C)Cc1nc(Nc2ccc(-c3cnc4ccccn34)c3c2C(=O)NC3)ccc1[C@@H]1CCOC1 [US11548890, Compound I-714] ... < 100 nM
CC1=CC2N=CC(c3ccc(Nc4ccc(N5CCC(O)CC5)cn4)c4c3CNC4=O)=C2C=C1 (centres undefined) [US11548890, Compound I-137] ... < 100 nM

Please report the recorded IC50 for CC(C)(O)[C@H]1CN(c2ccc(Nc3cnc(-c4cnc5cnccn45)c4c3C(=O)NC4)nc2)CCO1 [US11548890, Compound I-486] .
< 100 nM
